The reader will find reported solubility (g/100 g solution) values listed item by item below.
assay: xn = mol fraction of the nth substance listed, in the solute-free solvent; conditions: 288.15 K; x2 = 0.1666

Nc1cccc2ccncc12 + CCCO + O = 0.56
CN1CCC(N(Cc2cccs2)c2ccccc2)CC1 + CCCO + O = 1.18
CN1CCC(N(Cc2cccs2)c2ccccc2)CC1 + CC(C)O + O = 0.933
Nc1cccc2ccncc12 + CC(C)O + O = 0.445

// next entry
// solubility (g/100 g solution) lookup, key: Cc1ccc2cc(Br)ccc2n1 + CC(C)O + O
0.492

---

experiment: xn = mol fraction of the nth substance listed, in the solute-free solvent; settings: 293.15 K; x2 = 0.06974
Each entry gets No if its solubility (g/100 g solution) stays under 0.4, and Yes if its solubility (g/100 g solution) is 0.4 or above.

Determine whether measured solubility (g/100 g solution) meets or exceeds 0.4 for Cc1ccc2cc(Br)ccc2n1 + CC(C)O + O
No

Hey, just so you know, these numbers are from the CheMixHub drug solubility set.
